# System: PPARg DBDmut IVT, anti-PPARg (DBD mutation: PPARg1 K132A/R137A, NR concentration 270 nM)
# measurement_notes: PBM binding z-score (relative to random genomic background probes); higher = stronger binding; sequences stand for … in GC…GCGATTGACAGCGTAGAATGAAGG
reported_property: PBM binding z-score

1) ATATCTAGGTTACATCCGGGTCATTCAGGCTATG = 3.16
2) CGTCAAAGTTCAAGGTAACGAAACAGAAAGCAGC = 0.231
3) TCATATAGGCAAAGGTGAAAGTCGAACGATATGA = 0.292
4) AGAATAAGGTTATACGTAGATCAGGGAAGAAAGT = 1.1

====

# Tested on: LXRa:RXRa (NR concentration 270 nM, RXRa partner concentration 90 nM)
# measurement_notes: PBM binding z-score (relative to random genomic background probes); higher = stronger binding; sequences stand for … in GC…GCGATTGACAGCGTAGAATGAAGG
Recorded PBM binding z-score values for a group of sequences are listed next.
reported_property: PBM binding z-score

1. CCGACTGGGGCATAAGGTTACCCTAAGCCAGCCC = 0.99
2. TCTGCTAGGTCAACCATGGTCAGCTAATCTGCTA = 3.21
3. CCGACTGGGGCATAAGGTGACCATAAGCCAGCCC = -0.426
4. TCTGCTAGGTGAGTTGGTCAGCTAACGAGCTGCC = -0.56
5. CGTCCAAGGTCAGCTGGTCAGTGAAAGCGACGTG = 3.28
6. CGTCCAAGGTCAGAGAGGTCTGTGAATGCCGAGT = 3.14
7. ATACCAAGGTGATCGTGAGGTCGTCGATACTAAC = 1.08
8. ATCGAAAGGACGTGAGGTGAGTATACAGAAAGGC = -0.461
9. CAAACTATGTCACAGAGGTCAAAGTCCGTGCGTA = 5.73
10. ATATGTAGGTTAGCGGGTCATTCAGTTTGCGCAT = 2.27

====

# System: PPARg DBDmut:RXRa IVT, anti-PPARg (DBD mutation: PPARg1 K132A/R137A, NR concentration 270 nM, RXRa partner concentration 90 nM)
# measurement_notes: PBM binding z-score (relative to random genomic background probes); higher = stronger binding; sequences stand for … in GC…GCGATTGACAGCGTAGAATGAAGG
reported_property: PBM binding z-score

1) ACAATGAGGTTATACGTAGATCAGGGAAGAAAGT = 1.33
2) TTACCAAGGTGATAGGTCGTTGATGCACGCCTTG = 0.428
3) CCGACTGGGGCAAAGGTTTCCATACTCAGTACGA = -0.186
4) TCGGGTAGGTTAGGGGCATTCAGAATGGCGTCGA = 0.266
5) ATCTCTAGGTAACCAAGTTCAGTGACTGCCGAAC = 0.981
6) CCTTACGGGTCACTCGAGGTTATAGCATCGGAGT = 0.422
7) CAAACTAGGTCAAGTGGTCAAAGTCCGCTTCCCG = 2.88
8) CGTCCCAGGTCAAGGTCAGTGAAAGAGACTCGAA = 0.134
9) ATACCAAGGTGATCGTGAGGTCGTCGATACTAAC = 0.727
10) CAGCCTAGGTCAGGGCCATTATAGGAGGAACGTT = -0.531
11) ACGAGCAGGCCAAGGGTCACTCAAGATTAGTCCG = -0.273
12) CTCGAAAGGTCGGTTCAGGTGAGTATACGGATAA = 0.489
13) TCTGCTAGGTCAACGATGTTCAGCTAATCTGCTA = 0.0539
14) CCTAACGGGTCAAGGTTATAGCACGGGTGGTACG = -0.204
15) CAAACTAGGTCAACGTCAAAGTCGGTTTGTGCCA = 5.16
16) ACTATTAGTTGACTTCGGGCAACCGATACGACGC = 0.985
17) AGAATGAGGTTATTAAGTTCAGGGAATTGCGGTC = 1.24
18) ATTTCTAGGTAAGACTCAGTTCAGTGAAGAACGC = 1.64
19) CCGACTGGGGCATACGGTTACCATAAGCCAGCCC = -0.604
20) CCTACTCGGCCAAGGTCATTGATCAGTCAAAGCA = -0.0349
21) TGAATGAGGTTATAAGATCAGGAAACGTTGCAAA = 0.845
22) TAGCCGAGGTCAGATCGGGCCAGTATACGCTATA = 0.311
